System: Aurora B kinase (Homo sapiens) | Read-out: IC50
Write it as a number; the unit nM goes unstated.

Check out these entries, answers already filled in.
{"molecule": "Cc1cc2c(cc1C)NC(=C(C(N)=O)c1ncc(C(=O)NCCCN3CCOCC3)c(C(F)(F)F)n1)N2 [Compound 133A]", "meas_value": 10}
{"molecule": "CN(CCN1CCCCC1)c1ccc2c(c1)S/C(=C(/C(N)=O)c1nccc(C(F)(F)F)n1)N2 [Compound 125A]", "meas_value": 10}
{"molecule": "CC(C)(N)C(=O)Nc1ccc2c(c1)N/C(=C(/C(N)=O)c1nccc(C(F)(F)F)n1)N2 [Compound 81A]", "meas_value": 7}

For the next question, use this molecule.
Q: For the molecule CCN1CCN(CCCNC(=O)c2ccc3c(c2)N/C(=C(/C(N)=O)c2nccc(C(F)(F)F)n2)N3)CC1 [Compound 55A] , give its reported IC50.
Ans: 20

* * *

System: Aurora B kinase (Homo sapiens, UniProt Q96GD4) | Read-out: IC50
Sequence (Q96GD4 whole entry): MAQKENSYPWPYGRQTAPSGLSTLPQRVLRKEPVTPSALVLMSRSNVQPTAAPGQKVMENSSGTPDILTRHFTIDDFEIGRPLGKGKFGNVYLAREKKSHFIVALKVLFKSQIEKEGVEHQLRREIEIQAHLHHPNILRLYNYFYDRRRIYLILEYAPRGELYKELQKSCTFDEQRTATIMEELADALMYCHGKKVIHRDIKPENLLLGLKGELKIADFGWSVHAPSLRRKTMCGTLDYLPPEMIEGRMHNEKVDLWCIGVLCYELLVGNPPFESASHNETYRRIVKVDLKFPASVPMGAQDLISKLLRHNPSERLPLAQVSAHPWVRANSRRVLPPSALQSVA
Write it as a number; the unit nM goes unstated.

Q: Name the recorded IC50 of NC(=O)/C(=C1\Nc2ccc(CCN3CCOCC3)cc2S1)c1nccc(C(F)(F)F)n1 [Compound 101A] , assay system Aurora B kinase (Homo sapiens, UniProt Q96GD4).
Ans: 9

Q: Name the recorded IC50 of NC(=O)/C(=C1\Nc2ccc(C(=O)O)cc2N1)c1nccc(C(F)(F)F)n1 [Compound 28A] , assay system Aurora B kinase (Homo sapiens, UniProt Q96GD4).
Ans: 5

Q: Name the recorded IC50 of NC(=O)/C(=C1\Nc2ccc(NC(=O)CCCN3CCOCC3)cc2N1)c1nccc(C(F)(F)F)n1 [Compound 85A] , assay system Aurora B kinase (Homo sapiens, UniProt Q96GD4).
Ans: 4

Q: Name the recorded IC50 of NC(=O)/C(=C1/Nc2cc(F)cc(F)c2N1)c1nccc(C(F)(F)F)n1 [Compound 36A] , assay system Aurora B kinase (Homo sapiens, UniProt Q96GD4).
Ans: 40

Q: Name the recorded IC50 of CN1CCN(S(=O)(=O)c2ccc3c(c2)S/C(=C(/C(N)=O)c2nccc(C(F)(F)F)n2)N3)CC1 [Compound 126A] , assay system Aurora B kinase (Homo sapiens, UniProt Q96GD4).
Ans: 20

Q: Name the recorded IC50 of CN(C)CCCNC(=O)c1ccc2c(c1)N/C(=C(/C(N)=O)c1nccc(C(F)(F)F)n1)N2 [Compound 62A] , assay system Aurora B kinase (Homo sapiens, UniProt Q96GD4).
Ans: 10

Q: Name the recorded IC50 of NC(=O)/C(=C1\Nc2ccc(N3CCC(N4CCOCC4)CC3)cc2S1)c1nccc(C(F)(F)F)n1 [Compound 122A] , assay system Aurora B kinase (Homo sapiens, UniProt Q96GD4).
Ans: 9

Q: Name the recorded IC50 of CN1CCC[C@H]1C(=O)Nc1ccc2c(c1)N/C(=C(/C(N)=O)c1nccc(C(F)(F)F)n1)N2 [Compound 77A] , assay system Aurora B kinase (Homo sapiens, UniProt Q96GD4).
Ans: 7

Q: Name the recorded IC50 of CN1CCC[C@H]1C(=O)Nc1ccc2c(c1)S/C(=C(/C(N)=O)c1nccc(C(F)(F)F)n1)N2 [Compound 78A] , assay system Aurora B kinase (Homo sapiens, UniProt Q96GD4).
Ans: 40

Q: Name the recorded IC50 of NC(=O)C(=C1Nc2ccccc2N1)c1ncc(C(=O)NCCCN2CCOCC2)c(C(F)(F)F)n1 [Compound 132A] , assay system Aurora B kinase (Homo sapiens, UniProt Q96GD4).
Ans: 20

Q: Name the recorded IC50 of NC(=O)/C(=C1\Nc2ccc(NC(=O)Cn3ccnc3)cc2N1)c1nccc(C(F)(F)F)n1 [Compound 86A] , assay system Aurora B kinase (Homo sapiens, UniProt Q96GD4).
Ans: 8

Q: Name the recorded IC50 of NC(=O)/C(=C1\Nc2ccc(C(=O)N3CCNCC3)cc2S1)c1nccc(C(F)(F)F)n1 [Compound 61A] , assay system Aurora B kinase (Homo sapiens, UniProt Q96GD4).
Ans: 10

Q: Name the recorded IC50 of Cn1ccnc1CCc1ccc2c(c1)S/C(=C(/C(N)=O)c1nccc(C(F)(F)F)n1)N2 [Compound 97A] , assay system Aurora B kinase (Homo sapiens, UniProt Q96GD4).
Ans: 7

Q: Name the recorded IC50 of CN1CCC(C(=O)Nc2ccc3c(c2)N/C(=C(/C(N)=O)c2nccc(C(F)(F)F)n2)N3)CC1 [Compound 140A] , assay system Aurora B kinase (Homo sapiens, UniProt Q96GD4).
Ans: 9

Q: Name the recorded IC50 of CCN(C(=O)c1ccc2c(c1)N/C(=C(/C(N)=O)c1nccc(C(F)(F)F)n1)N2)c1cccnc1 [Compound 43A] , assay system Aurora B kinase (Homo sapiens, UniProt Q96GD4).
Ans: 10

Q: Name the recorded IC50 of Cc1ccnc(/C(C(N)=O)=C2/Nc3ccccc3S2)n1 [Compound 18A] , assay system Aurora B kinase (Homo sapiens, UniProt Q96GD4).
Ans: 40
